Assay Target: T1, IFN-αJ1 (human, UniProt P01567 24-189)
T1 construct: also called IFN-α7; alpha J1
Test: ProteOn, one antigen concentration
// values below are reported Kd
Numbers only; they are read as nM.

Example entries and their recorded answers appear below.
[[record]]
binder = "IFWM3341 (antibody, V domains shown, VH IFWH624, VL IFWL991; converted mAb; also called IFWB3076) VH: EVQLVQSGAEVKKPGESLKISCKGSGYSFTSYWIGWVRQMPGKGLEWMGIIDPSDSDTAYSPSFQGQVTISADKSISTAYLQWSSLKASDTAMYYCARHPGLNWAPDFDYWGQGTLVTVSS VL: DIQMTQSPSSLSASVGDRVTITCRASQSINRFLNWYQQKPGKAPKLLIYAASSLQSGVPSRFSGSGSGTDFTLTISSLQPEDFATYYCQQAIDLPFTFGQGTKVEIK"
units = "nM"
assay_result = 0.275

[[record]]
binder = "IFWM3328 (antibody, V domains shown, VH IFWH591, VL IFWL1064; converted mAb; also called IFWB3063) VH: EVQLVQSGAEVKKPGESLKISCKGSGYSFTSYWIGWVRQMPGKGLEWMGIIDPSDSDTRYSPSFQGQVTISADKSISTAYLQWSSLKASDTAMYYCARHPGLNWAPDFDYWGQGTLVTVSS VL: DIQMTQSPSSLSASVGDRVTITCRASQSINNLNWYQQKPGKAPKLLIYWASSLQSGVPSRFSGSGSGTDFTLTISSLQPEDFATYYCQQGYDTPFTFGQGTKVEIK"
units = "nM"
assay_result = 0.36


Task: Please give the documented Kd of IFWM3353 (antibody, V domains shown, VH IFWH624, VL IFWL1014; converted mAb; also called IFWB3088) VH: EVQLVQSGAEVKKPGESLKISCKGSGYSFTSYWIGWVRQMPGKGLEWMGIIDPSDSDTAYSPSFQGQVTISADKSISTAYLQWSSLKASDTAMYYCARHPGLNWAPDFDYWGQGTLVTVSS VL: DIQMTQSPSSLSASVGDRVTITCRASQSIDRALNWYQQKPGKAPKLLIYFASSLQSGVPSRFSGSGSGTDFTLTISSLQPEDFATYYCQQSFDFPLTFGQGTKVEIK
Output: 0.095

The origin of these recorded values is patent US20150368338A1.
